Origin of values: PubChem BioAssay AID527

Assay: S. aureus quorum sensing inhibitors, primary screen, RNAIII-GFP reporter, flow cytometry (AID 527);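 also: 0% = AIP-stimulated control and 100% = unstimulated bacteria without AIP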
Conditions: S. aureus RN6390 RNAIII-GFP reporter, AIP-induced, flow cytometry 3 h; at 2 µM; active compounds read high
Hit rate of the full screen: of about 24,000 compounds, about 65 (0.3%) were called active. The sample as a whole holds a higher share of actives than the screen did.

molecule	inhibition [%]
CCOC(=O)N1CCN(C(=O)c2cnc3n(c2=O)CCS3)CC1	-0.4
O=C(Nc1ccncc1)c1cc2ccccc2o1	0
C=CCSc1nnc(Cn2c(=O)sc3ccccc32)n1C	24.2
CCOC(=O)C1CCN(C(=O)C2CCN(S(=O)(=O)c3c(C)noc3C)CC2)CC1	-1.5
CSC1=NCCN1C(=O)c1ccc(S(=O)(=O)N2CCOCC2)cc1	-5.9
Cc1cc(Cl)c(S(=O)(=O)Nc2ccc3c(c2)OCCO3)cc1OCC(N)=O	-0.7
COC(=O)c1ccc(CN(c2ccccc2OC)S(=O)(=O)c2cccs2)o1	-0.8
CCOC(=O)CSc1nnc(CNC(=O)c2cccs2)n1-c1cc(OC)ccc1OC	1.2
CCOc1ccc(Cn2nnc(C(=O)Nc3ccc(OC)cc3OC)c2N)cc1	-0.3
COc1ccc(S(=O)(=O)Nc2ccc(S(=O)(=O)N3CCCCC3)cc2)cc1OC	-3.8
O=C(O)Cc1ccc(-c2ccccc2)cc1	-0.8
CCCCC(=O)Nc1cc(C)c2c(=O)oc3ccccc3c2n1	43.3
Cc1nc2ccc(S(=O)(=O)NC(C(=O)N3CCCCCC3)C(C)C)cc2s1 (configuration not stated)	0.8
OCc1n[nH]c(CO)n1	-8.3
COc1cccc(OCC(O)CN2CCN(CCO)CC2)c1 (configuration not stated)	-2
COc1cccc(-c2nnc(NC(=O)c3ccc(S(=O)(=O)N(CC(C)C)CC(C)C)cc3)o2)c1	14.3
COc1cc(C2C(C#N)=C(N)Oc3n[nH]c(-c4ccccn4)c32)cc(OC)c1OC (configuration not stated)	-3.4
COc1cccc(N2CCN(C(=O)C3CCCN(S(=O)(=O)c4cnc[nH]4)C3)CC2)c1 (configuration not stated)	-1.3
Nc1scc(-c2ccncc2)c1Cl	0.4
Cc1cc(NC(=O)CSc2nnc(-c3ccc(Cl)s3)o2)no1	-5.9
CC(C)(C)C(=O)CCN1C(=O)C2(OCCO2)c2ccccc21	-2.2
CCOC(=O)c1ccc(Nc2cc(C)nc3nc(C)nn23)cc1	-5.5
